system: KM-20L2; experiment: NCI tumour cell line growth inhibition, 48 h
Activity calls are given as the source filed them. No stated cut-off is given here; in the data, active = GI50 up to about 1.1 µM and inactive = higher.

Compound: CCOC(=O)C/C(=N\c1cc(C)on1)N(CC)CC.[O-][Cl+3]([O-])([O-])O
Study Target: KM-20L2
GI50: > 100 µM (inactive)
//
Compound: CCCCCCCCCCC(=O)CC(=O)c1c(O)cccc1O
Study Target: KM-20L2
GI50: 50.2 µM (inactive)
//
Compound: O=C1c2ccccc2C(=O)N1/N=C\c1ccc(Br)cc1
Study Target: KM-20L2
GI50: > 10 µM (inactive)
//
Compound: O=NN(CCCl)C(=O)Nc1ccc(Cl)c(Cl)c1
Study Target: KM-20L2
GI50: 25.3 µM (inactive)
//
Compound: Cc1ccccc1SC(/C=C/NNC1=NN=C(c2ccccc2)C(c2ccccc2)N1)c1ccccc1 (configuration not stated)
Study Target: KM-20L2
GI50: 52 µM (inactive)
//
Compound: CC(=O)c1sc(-c2nc(C)c(C(=O)/C=C\c3ccc(/C=C\C(=O)c4sc(-c5nc(C)c(C(C)=O)s5)nc4C)cc3)s2)nc1C
Study Target: KM-20L2
GI50: > 100 µM (inactive)
//
Compound: CCCCn1c2ccccc2c2ccc3c(c21)C(=O)C=CC3=O
Study Target: KM-20L2
GI50: > 100 µM (inactive)

###

tested on: DLD-1; experiment: NCI tumour cell line growth inhibition, 48 h
Active and inactive are the calls of the source. Rule as the data show it: active = GI50 up to about 1.1 µM and inactive = higher.
Measured GI50, listed per entry.
Readout Label: GI50

Compound: c1ccc2cc(-c3cc4ccccc4s3)ccc2c1
Readout Label: GI50
Val: > 100 µM (inactive)
--
Compound: Cc1ccc(-c2cc(=O)c3cc(C)c(C)c(C(=O)O)c3o2)cc1[N+](=O)[O-]
Readout Label: GI50
Val: > 100 µM (inactive)
--
Compound: COc1cc2c(c3c1C=CCO3)C(=O)c1ccccc1C2=O
Readout Label: GI50
Val: 24.2 µM (inactive)
--
Compound: COc1ccc(Cc2c(=O)[nH]nc3ccccc23)cc1
Readout Label: GI50
Val: > 100 µM (inactive)
--
Compound: CC(C)(C)[Si](C)(C)OCCCC#CCO
Readout Label: GI50
Val: > 100 µM (inactive)
--
Compound: CC(=O)Oc1c2c(c(O)c3ccccc13)C(n1cnc3c(ncn3C3OC(CO)C4OC(C)(C)OC43)c1=N)CCC2 (stereo unspecified)
Readout Label: GI50
Val: 13.1 µM (inactive)

###

system: NCI-H226; assay: NCI tumour cell line growth inhibition, 48 h
The source made the active and inactive calls. Rule as the data show it: active = GI50 up to about 1.1 µM and inactive = higher.
Classes used: active, inactive

Compound: O=NN(CCCl)C(=O)Nc1ccc(Cl)c(Cl)c1
Group: inactive

Compound: O=C1CC(C(=O)O)Cc2c(Br)ccc(O)c21 (centres undefined)
Group: inactive

Compound: COC(=O)C1(C)CCc2c(OC)ccc(OC)c2C1=O (centres undefined)
Group: inactive

Compound: O=C1CS(=O)(=O)C(c2cccc(Oc3ccccc3)c2)N1C1CC1 (centres undefined)
Group: inactive

Compound: CO/C(=N\N=C\c1ccc(Cl)cc1Cl)c1ccncc1
Group: inactive

Compound: Cc1nc2c(=O)[nH]c(=O)nc-2n(CCO)c1C
Group: inactive

Compound: O=C1OC(C2Cc3ccc4c(c3C2=O)CCC4)c2ccccc21 (centres undefined)
Group: inactive

Compound: Cn1c(=O)c2c(nc3n(Cc4ccccc4)c(=O)c(NCCCBr)cn23)n(C)c1=O
Group: inactive

Compound: N#CN=C(NCc1ccccc1)NCc1ccccc1
Group: inactive

Compound: N#Cc1nc(CCCCCN2C(=O)c3ccccc3C2=O)oc1N
Group: inactive

Compound: CC/C(Cl)=N\OC(=O)Nc1ccc(F)c(Cl)c1
Group: inactive

Compound: CCc1nc(N)nc(N)c1-c1ccc(Cc2ccccc2)c([N+](=O)[O-])c1
Group: inactive

Compound: CC(=O)OCC1OC(SC2=N/C(=C\c3cc4c(=O)c5ccccc5sc4s3)C(=O)N2c2ccccc2)C(OC(C)=O)C(OC(C)=O)C1OC(C)=O (centres undefined)
Group: inactive

Compound: Nc1ncnc2c1nnn2C1OC(CO)C(O)C1O (centres undefined)
Group: inactive

Compound: COC(=O)C(Cc1c[nH]c2ccccc12)NC1=Nc2ccncc2S(=O)(=O)N1c1cccc(OC(C)C)c1 (centres undefined)
Group: inactive

Compound: CC(C)CCn1c(=O)c2c(=O)[nH][nH]c2c2ccccc21
Group: inactive

Compound: CC1=CC(O)C(O)C2(C)C1CC1OC(=O)C(O)C3C(C)C(O)C4(O)OCC13C42 (centres undefined)
Group: inactive

Compound: O=C(O)CCC(N/C=C1/N=C(c2ccccc2)OC1=O)C(=O)O (centres undefined)
Group: inactive

Compound: CC(=O)Oc1c(C)n(CCCl)ccc1=O
Group: inactive

Compound: N=C1/C(=C/c2ccco2)C(=O)N=C2SC=NN12
Group: inactive

Compound: O=[N+]([O-])c1cc2c(cc1O)[nH]c1cccc([N+](=O)[O-])c12
Group: inactive

Compound: Clc1ccc(CCNC2(c3cc4ccccc4s3)CCCCC2)cc1Cl
Group: inactive

Compound: O=C(Nc1ccc(Br)cc1)c1c(-c2ccccc2)c2ccc(O)cc2oc1=O
Group: inactive

Compound: CSC1=C(SC)C(=O)c2cn(C)c(=O)cc2C1=O
Group: inactive

Compound: CCOC(=O)C12C(C(=O)OC)=C(C)N(NC(=O)Nc3ccccc3)C1(N)N(NC(=O)Nc1ccccc1)C(C)=C2C(=O)OC (centres undefined)
Group: inactive

Compound: O=C(CC1(O)C(=O)Nc2ccccc21)c1ccco1 (centres undefined)
Group: inactive

Compound: CCCCNC(=S)Nc1nc(C(=O)NNC(=S)Nc2ccccc2)cs1
Group: inactive

Compound: COc1ccc2c(c1)[n+]([O-])c(C(N)=O)c(N)[n+]2[O-]
Group: inactive

Compound: NNC(=O)CCSc1ccccc1
Group: inactive

Compound: O=c1[nH]nc(Cc2ccccc2)n1N=C1CCCCC1
Group: inactive

Compound: NC1(C(=O)OCc2ccccc2)CCCC1
Group: inactive

Compound: CSc1cnc2ccccc2c1Sc1c[nH]c2ccccc2c1=O
Group: inactive

Compound: O=C1OC2CC=CC1C2 (centres undefined)
Group: inactive

Compound: c1ccc(Nc2nn3c(CCCCCCCCc4nnc5sc(Nc6ccccc6)nn45)nnc3s2)cc1
Group: inactive

Compound: C/C(=N\Nc1nc2ccccc2s1)c1cc(C)ncn1
Group: active

Compound: CCOC(=O)C/C(=N\c1cc(C)on1)N(CC)CC.[O-][Cl+3]([O-])([O-])O
Group: inactive

Compound: COc1ccccc1/C=C/c1c(N)ncnc1Nc1cccc(Cl)c1
Group: inactive

Compound: COC(=O)[C@@]12CCCC(=O)[C@@H]1[C@H]1CCC[C@H]12
Group: inactive

Compound: O/N=C(\C(=N/O)Nc1ccc(-c2ccc(NC(=N/O)/C(=N\O)c3ccccc3)cc2)cc1)c1ccccc1
Group: inactive

Compound: CC1CC(C)CC(NC2=NCCO2)C1 (centres undefined)
Group: inactive

Compound: O=[N+]([O-])c1ccc(/C=C/c2ccc(/C=C/c3ccc([N+](=O)[O-])cc3[N+](=O)[O-])cc2)c([N+](=O)[O-])c1
Group: inactive

Compound: CN(C)/C=N/S(=O)(=O)c1nn2c(C=O)c(-c3ccc(Cl)cc3)nc2s1
Group: inactive

Compound: CCNCCNC(=O)c1ccc(Br)cc1
Group: inactive

Compound: COC(=O)[C@H]1[C@H](OC(=O)[C@@H](OC)c2ccccc2)ON2CC[C@@H](OC(=O)c3ccccc3)[C@H]12
Group: inactive
